Would you mind telling me the reported TGI of each entry?
- System: NCI-H460 lung
- Assay Remarks: NCI tumour cell line growth inhibition, 48 h

Solved entries:
# Compound, Tested Target, Result
measured = [
    ("Nc1nc(SCC(=O)c2ccc(Br)cc2)c2[nH]cnc2n1", "NCI-H460 lung", "> 100 µM"),
    ("CC1OC(OC2C(O)C(O)C(O)C(O)C2O)C(N)CC1N=C(N)C(=O)O (stereo not given)", "NCI-H460 lung", "> 100 µM"),
    ("COc1ccc(COCC[C@H](C)OC2OC(CO)C(O)C(O)C2O)cc1 (stereo not given in full)", "NCI-H460 lung", "> 100 µM"),
    ("COc1cc2c3c(n(CCCNCCCNCCCN)c(=O)c2cc1OC)-c1cc2c(cc1C3=O)OCO2", "NCI-H460 lung", "> 100 µM"),
]

Below: the item to evaluate.
Data request: For NCI-H460 lung, provide TGI of Oc1ccccc1C=Nc1ccc(-c2nc3ccccc3s2)cc1 please.
Data returned: 83.5 µM
